# tgt: Inhibitor of nuclear factor kappa-B kinase subunit alpha (Homo sapiens, UniProt O15111)
# Sequence (O15111 whole entry): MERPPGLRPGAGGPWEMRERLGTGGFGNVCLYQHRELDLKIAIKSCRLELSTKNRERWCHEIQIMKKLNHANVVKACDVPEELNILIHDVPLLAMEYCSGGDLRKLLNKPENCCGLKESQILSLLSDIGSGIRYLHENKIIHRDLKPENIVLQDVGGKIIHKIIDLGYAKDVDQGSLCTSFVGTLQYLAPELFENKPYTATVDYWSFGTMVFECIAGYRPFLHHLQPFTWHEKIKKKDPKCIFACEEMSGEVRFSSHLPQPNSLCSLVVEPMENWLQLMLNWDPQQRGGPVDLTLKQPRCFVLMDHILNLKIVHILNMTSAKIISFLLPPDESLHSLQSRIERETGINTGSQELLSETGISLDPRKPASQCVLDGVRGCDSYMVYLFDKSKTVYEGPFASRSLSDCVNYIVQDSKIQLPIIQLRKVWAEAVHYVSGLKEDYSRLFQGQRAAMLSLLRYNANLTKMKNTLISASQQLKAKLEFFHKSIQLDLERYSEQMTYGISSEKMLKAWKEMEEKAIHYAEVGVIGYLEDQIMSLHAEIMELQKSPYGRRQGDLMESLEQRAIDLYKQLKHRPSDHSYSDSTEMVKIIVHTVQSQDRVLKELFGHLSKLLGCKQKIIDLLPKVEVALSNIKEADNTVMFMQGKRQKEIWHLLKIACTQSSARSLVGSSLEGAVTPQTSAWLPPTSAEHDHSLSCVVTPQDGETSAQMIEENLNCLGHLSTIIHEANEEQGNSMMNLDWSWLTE
# procedure_details: Inhibition of human recombinant IKK1
param class (str): category from IC50; see ranges low bracket: < 200 nM; middle bracket: ≥ 200 nM and < 1000 nM; high bracket: ≥ 1000 nM

- smiles_record: "NCCNS(=O)(=O)c1ccc(-c2ccnc3[nH]c(CC(N)=O)cc23)cc1"
  assigned_label: "low bracket"

Into which category would you place "O=S(=O)(NC1CNC1)c1ccc(-c2ccnc3[nH]ccc23)cc1" ?
low bracket

// repeat for "O=S1(=O)CCC(NS(=O)(=O)c2ccc(-c3ccnc4[nH]ccc34)cc2)CC1" and report
low bracket

"Cc1cc2c(-c3ccc(NS(C)(=O)=O)cc3)ccnc2[nH]1" , same question.
high bracket

Entry "NC(=O)c1ccc(-c2ccnc3[nH]ccc23)cc1" please
middle bracket

Another compound to check: "CS(=O)(=O)Nc1ccc(-c2ccnc3[nH]ccc23)cc1"
middle bracket

Hello, the source for this data is ChEMBL document CHEMBL1138461, in case you need it.
